SC1.5 (concentration of activator that produced a 50% increase in the activity of GK) for assorted compounds
# targetUnderTest: Recombinant human liver GK1 (GST-GK) (Homo sapiens)
# Construct: made in house; host or cells: E. coli
# Sequence (P35557 1-466 isoform P35557-2): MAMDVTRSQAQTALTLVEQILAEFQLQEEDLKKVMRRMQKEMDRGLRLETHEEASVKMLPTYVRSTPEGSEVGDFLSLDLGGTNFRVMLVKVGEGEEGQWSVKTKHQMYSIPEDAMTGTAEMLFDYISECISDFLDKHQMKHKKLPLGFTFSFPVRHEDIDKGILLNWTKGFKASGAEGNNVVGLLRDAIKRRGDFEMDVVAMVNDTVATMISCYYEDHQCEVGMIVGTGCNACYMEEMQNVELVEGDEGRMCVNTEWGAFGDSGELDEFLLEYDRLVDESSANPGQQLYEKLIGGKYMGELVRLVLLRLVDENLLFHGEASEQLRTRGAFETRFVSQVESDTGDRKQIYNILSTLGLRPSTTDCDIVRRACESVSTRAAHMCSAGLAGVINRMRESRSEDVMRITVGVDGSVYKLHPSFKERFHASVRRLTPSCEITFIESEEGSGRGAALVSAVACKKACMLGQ
# measurementProtocol: In vitro glucokinase activity, G6PDH-coupled spectrophotometric assay
# Format: biochemical
# cond: 5 mM D-glucose, 30° C., pH 7.1
measuredParameter: SC1.5 (concentration of activator that produced a 50% increase in the activity of GK) (µM)

{"columns": ["compound", "recordedMeasurement"],
 "data": [
  ["CC(C)CC(C(=O)Nc1nccs1)N1C(=O)Cc2cc(Br)ccc21 (stereo not drawn)", 5.82],
  ["CC(C)CC(C(=O)Nc1cnccn1)N1C(=O)Cc2cc(OC(F)(F)F)ccc21 (stereo not drawn)", 3.67],
  ["Cn1ccc(NC(=O)C(CC2CCCC2)N2C(=O)Cc3c(Cl)cccc32)n1 (stereo not drawn)", 7.4],
  ["O=C1C(=O)N(C(CC2CCCC2)C(=O)Nc2nccs2)c2ccc(Br)cc21 (stereo not drawn)", 2.18],
  ["O=C1C(=O)N(C(CC2CCCC2)C(=O)Nc2nccs2)c2ccc(Cl)cc21 (stereo not drawn)", 3.01],
  ["O=C(Nc1cnccn1)C(CC1CCCC1)N1C(=O)Cc2ccccc21 (stereo not drawn)", 5.93],
  ["CC(C)CC(C(=O)Nc1cnccn1)N1C(=O)Cc2ccc(Cl)cc21 (stereo not drawn)", 2.64],
  ["Cc1ccc2c(c1)C(=O)C(=O)N2C(CC1CCCC1)C(=O)Nc1ccn(C)n1 (stereo not drawn)", 29.38],
  ["O=C1C(=O)N(C(CC2CCCC2)C(=O)Nc2nccs2)c2ccc(OC(F)(F)F)cc21 (stereo not drawn)", 0.76],
  ["CC(C)CC(C(=O)Nc1ccccn1)N1C(=O)Cc2ccccc21 (stereo not drawn)", 18.09],
  ["Cc1ccc2c(c1)C(=O)C(=O)N2C(CC1CCCC1)C(=O)Nc1ccccn1 (stereo not drawn)", 6.67],
  ["Cc1ccc2c(c1)CC(=O)N2C(CC1CCCC1)C(=O)Nc1cnccn1 (stereo not drawn)", 4.47],
  ["CC(C)CC(C(=O)Nc1nccs1)N1C(=O)C(=O)c2c(Cl)cccc21 (stereo not drawn)", 7.72],
  ["CC(C)CC(C(=O)Nc1ccccn1)N1C(=O)C(=O)c2cc(Br)ccc21 (stereo not drawn)", 7.43],
  ["Cn1ccc(NC(=O)C(CC2CCCC2)N2C(=O)C(=O)c3cc(Br)ccc32)n1 (stereo not drawn)", 6.18],
  ["CC(C)(O)Cn1ccc(NC(=O)C(CC2CCCC2)N2C(=O)Cc3ccccc32)n1 (stereo not drawn)", 3.87],
  ["O=C(Nc1cnccn1)C(CC1CCCC1)N1C(=O)Cc2cc(Cl)ccc21 (stereo not drawn)", 1.84],
  ["Cc1ccc2c(c1)C(=O)C(=O)N2C(CC1CCCC1)C(=O)Nc1nccs1 (stereo not drawn)", 16.22]
]}
